The origin of these recorded values is patent US11384079B2.

Biological target: C5aR (Homo sapiens)
Construct: U937 cells are a monocytic cell line which express C5aR
Sequence (P21730 1-350): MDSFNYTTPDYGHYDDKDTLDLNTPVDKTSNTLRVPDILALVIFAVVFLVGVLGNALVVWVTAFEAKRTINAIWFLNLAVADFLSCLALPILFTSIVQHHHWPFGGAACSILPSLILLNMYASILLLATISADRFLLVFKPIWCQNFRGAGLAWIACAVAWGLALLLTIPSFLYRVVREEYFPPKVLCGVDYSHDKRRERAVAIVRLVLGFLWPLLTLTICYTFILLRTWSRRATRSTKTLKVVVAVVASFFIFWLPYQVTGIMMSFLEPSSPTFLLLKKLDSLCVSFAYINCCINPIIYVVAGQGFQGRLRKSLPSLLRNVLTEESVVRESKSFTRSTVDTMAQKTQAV
Test: chemotaxis assay (C5aR mediated migration)
Conditions: migration of U937 or neutrophil cells toward C5a (0.03 nM), 1.5 hours at 37° C., read-out: Mig IC50
Procedure: U937 cells are a monocytic cell line which express C5aR, and are available from ATCC (VA). […] Optionally, compounds may be further assayed for their ability to inhibit chemotaxis in cells. […] The chambers are incubated 1.5 hours at 37° C., and the number of cells in the lower chamber quantified either by direct cell counts in five high powered fields per well or by the CyQuant assay (Molecular Probes), a fluorescent dye method that measures nucleic acid content and microscopic observation.
readoutName: IC50

| querySmiles | readoutName | reading |
| --- | --- | --- |
| CCc1cccc(CC)c1-n1nc2c(c1-c1ccc3[nH]cnc3c1Cl)CN(c1ncc(C(F)(F)F)cn1)CC2 | IC50 | 50 to 500 nM |

Task: Reported IC50, compound CCc1cccc(CC)c1-n1nc2c(c1-c1cc(F)c(C)c3[nH]ccc13)CN(c1ncc(C(F)(F)F)cn1)CC2 : ____
Result: < 5 nM

Task: Lookup CCc1cccc(CC)c1-n1nc2c(c1-c1ccc(C(=O)OC)c3[nH]ccc13)CN(c1ncc(C(F)(F)F)cc1F)CC2
Result: < 5 nM

Task: Lookup Cc1cccc(OCC(C)C)c1-n1nc2c(c1-c1cccc3[nH]ccc13)CN(c1ncc(Cl)cc1Cl)CC2
Result: 5 to 50 nM

Task: Lookup CCc1cccc(CC)c1-n1nc2c(c1-c1ccc(Cl)c3[nH]ccc13)CN(c1cnccn1)CC2
Result: < 5 nM

Task: Lookup CCc1cccc(CC)c1-n1nc2c(c1-c1ccc(Cl)c3[nH]ccc13)CN(c1ncc(Cl)cn1)CC2
Result: < 5 nM

Task: Lookup CCc1cccc(CC)c1-n1nc2c(c1-c1ccc(Cl)c3[nH]ccc13)CN(c1ncc(Cl)cc1F)CC2
Result: < 5 nM

Task: Lookup CCc1cccc(CC)c1-n1nc2c(c1-c1cccc3[nH]cnc13)CN(c1ncc(C(F)(F)F)cn1)CC2
Result: 5 to 50 nM
